- ASSAY INFO: in vivo
- TEST CONTEXT: nu/nu, mouse, tumor, po, 60 mg/kg
- Description: AUC (0 to 24 hrs) in nu/nu mouse xenografted with human SK-OV-3 cells measured in tumor at 60 mg/kg, po qd by uHPLC-MS/MS analysis
ASSAY METRIC: AUC at 24 h (µM·h)
Return type: number; implicit unit µM·h.

Input: Read the entry C[C@@H](C(=O)Nc1ccc(Cl)cc1)[C@H]1CC[C@@H](c2ccnc3ccc(F)cc32)CC1 and write its reported AUC at 24 h.
Output: 34.9
